Consider the following compounds; for each one, report its AUC/dose.
assay-procedure: Dose normalized AUC (0 to infinity) in rat at 10 mg/kg, po measured upto 72 hrs by LC-MS/MS analysis
Format: ADME, organism-based
setup-conditions: in vivo
Answer in µM·h, number only, no unit symbol.

Ask: For the compound CCOC(=O)[C@H](N)Cc1cn(C)c2ccccc12.Cl , what AUC/dose is on record?
Result: 454

Ask: Proceed to Cl.Cn1cc(C[C@@H](N)C(=O)OCC(N)C(=O)O)c2ccccc21 (single isomer, unassigned)
Result: 588

Ask: Would you mind doing CC(C)C(NC(=O)[C@H](N)Cc1cn(C)c2ccccc12)C(=O)O.Cl (single isomer, unassigned) as well?
Result: 202

Ask: Likewise for CC(C)[C@H](N)C(=O)N[C@H](Cc1cn(C)c2ccccc12)C(=O)O.Cl ?
Result: 338

Ask: Would you mind doing Cl.Cn1cc(C[C@@H](NC(=O)[C@@H](N)CCC(=O)O)C(=O)O)c2ccccc21 as well?
Result: 574
